- Read-out: xenobiotic metabolism (CYP1A2), CYP1A2 (gene 1544)
- procedure text: CLD_CYP1A2_6hr: CellzDirect (CLD) Gene Expression Assay for xenobiotic metabolism (CYP1A2) at 6 hours (AID 2283663)
Results filed as inconclusive are left out. Calls of active or inactive are those of the source. The calls were made as follows: active = hit-call score of the fitted dose curve at least 0.9, where 1 is the maximum; inconclusive = response in the unintended direction; inactive = score below 0.9.
Outcome codes: active, inactive

| compound smiles | group label |
| --- | --- |
| Clc1ccccc1-c1nnc(-c2ccccc2Cl)nn1 | inactive |
| COC(=O)c1ccccc1CS(=O)(=O)NC(=O)Nc1nc(OC)cc(OC)n1 | inactive |
| CCCN(CCC)c1c([N+](=O)[O-])cc(C(F)(F)F)cc1[N+](=O)[O-] | inactive |
| CCCN(CCOc1c(Cl)cc(Cl)cc1Cl)C(=O)n1ccnc1 | active |

====

- Read-out: Lipase C (LIPC), LIPC (gene 3990)
- procedure text: LTEA_HepaRG_LIPC: Life Technologies and Expression Analysis (LTEA) Assay for Lipase C (LIPC) using HepaRG (AID 2283514)
- applied conditions: mRNA level, 48 h; actives raise or lower the signal
Activity calls are given as the source filed them. Rule for the calls: active = hit-call score of the fitted dose curve at least 0.9, where 1 is the maximum; inactive = score below 0.9.
Outcome codes: 1.0 for active, 0.0 for inactive

| molecule | group label |
| --- | --- |
| CNC(=O)Oc1ccccc1OC(C)C | 0.0 |
| CC1(C)C(C=C(Cl)Cl)C1C(=O)OC(C#N)c1ccc(F)c(Oc2ccccc2)c1 (centres undefined) | 0.0 |
| CCOCN(C(=O)CCl)c1c(C)cccc1CC | 1.0 |
| Cc1[nH]c(=O)n(C(C)(C)C)c(=O)c1Cl | 0.0 |
| O=C1c2ccccc2C(=O)N1SC(Cl)(Cl)Cl | 0.0 |
| CN1CSC(=S)N(C)C1 | 0.0 |
| N#CN | 0.0 |
| CC(C)(C)C(O)C(Oc1ccc(Cl)cc1)n1cncn1 (centres undefined) | 0.0 |
| CC(C)OC(=O)Nc1cccc(Cl)c1 | 0.0 |

====

- Read-out: Thrombomodulin, THBD (gene 7056)
- procedure text: BSK_3C_Thrombomodulin: BioMAP Diversity Plus: 3C Assay for Thrombomodulin Biomarker Activity (AID 2283029)
- applied conditions: primary human endothelial cells (HUVEC); actives raise or lower the signal
- Protocol: BSK_3C is a cell-based, multiplexed-readout assay that uses umbilical vein endothelium, a human vascular primary cell, with measurements taken at 24 hours after chemical dosing in a 96-well plate.BSK_3C_Thrombomodulin is an assay component measured in the BSK_3C assay. It measures Thrombomodulin antibody related to regulation of gene expression using ELISA technology.Data from the assay component BSK_3C_Thrombomodulin was analyzed into 1 assay endpoint. […]
Activity calls are given as the source filed them. Rule for the calls: active = hit-call score of the fitted dose curve at least 0.9, where 1 is the maximum; inactive = score below 0.9.
Outcome codes: label 1 for active, label 0 for inactive

| compound | group label |
| --- | --- |
| COc1nn(CSP(=S)(OC)OC)c(=O)s1 | label 0 |
| CC(C)N(C(=O)COc1nnc(C(F)(F)F)s1)c1ccc(F)cc1 | label 0 |
| N#Cc1c(Cl)c(Cl)c(Cl)c(C#N)c1Cl | label 1 |
| O=C(O)C(F)(F)C(F)(F)C(F)(F)C(F)(F)C(F)(F)C(F)(F)C(F)(F)F | label 0 |
| CC[C@H](C)[C@H]1O[C@]2(C=C[C@@H]1C)C[C@@H]1C[C@@H](C/C=C(\C)[C@@H](O[C@H]3C[C@H](OC)[C@@H](O[C@H]4C[C@H](OC)[C@@H](O)[C@H](C)O4)[C@H](C)O3)[C@@H](C)/C=C/C=C3\CO[C@@H]4[C@H](O)C(C)=C[C@@H](C(=O)O1)[C@]34O)O2 (tested in a mixture with another compound) | label 1 |
| N#CN | label 0 |
| CNC(=O)CSP(=S)(OC)OC | label 0 |
| CN1CSC(=S)N(C)C1 | label 1 |
| CCN(CC)C(=O)SCc1ccc(Cl)cc1 | label 0 |
| OCCOc1ccccc1 | label 0 |
